B1: glmS ribozyme (parent)
chain: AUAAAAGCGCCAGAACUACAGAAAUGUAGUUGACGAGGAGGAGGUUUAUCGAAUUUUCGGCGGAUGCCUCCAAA

Variants of: B1
Experiment: kcat; higher = faster cleavage; RNA array
Conditions: with glucosamine-6-phosphate
Fewer inactive variants are shown than the library holds.
Assign kcat to each entry below.
Report only the number, with the unit s⁻¹ understood.

Exam item: Item under review: U57C C68A . Reported kcat?
Marked response: 1.48e-05

Exam item: Item under review: A12U U31G U47C . Reported kcat?
Marked response: 0.000915

Exam item: Item under review: A33C A42G . Reported kcat?
Marked response: 0.00107

Exam item: Item under review: A39C U65A . Reported kcat?
Marked response: 0.000512

Exam item: Item under review: A6U U54G . Reported kcat?
Marked response: 0.000293

Exam item: Item under review: G13U U49G . Reported kcat?
Marked response: 1.85e-05

Exam item: Item under review: C58A . Reported kcat?
Marked response: 0.000863

Exam item: Item under review: U30A A53U . Reported kcat?
Marked response: 0.00525

Exam item: Item under review: U54C G66U . Reported kcat?
Marked response: 0.0027

Exam item: Item under review: A12C C16A . Reported kcat?
Marked response: 0.00127

Exam item: Item under review: A15G G66C . Reported kcat?
Marked response: 0.000786

Exam item: Item under review: A42G U46A . Reported kcat?
Marked response: 0.00476

Exam item: Item under review: U31G A33U C70U . Reported kcat?
Marked response: 9.54e-05

Exam item: Item under review: A6C U31G . Reported kcat?
Marked response: 2.39e-05

Exam item: Item under review: U45G U46G . Reported kcat?
Marked response: 0.00603

Exam item: Item under review: G40U A53C . Reported kcat?
Marked response: 0.00186

Exam item: Item under review: G63C U69A . Reported kcat?
Marked response: 1.18e-05

Exam item: Item under review: U45A G59A . Reported kcat?
Marked response: 0.00059

Exam item: Item under review: A14C U57C . Reported kcat?
Marked response: 5.66e-05

Exam item: Item under review: U46C C71U . Reported kcat?
Marked response: 0.00342

Exam item: Item under review: C58U A64G . Reported kcat?
Marked response: 0.00011

Exam item: Item under review: U30G G60A . Reported kcat?
Marked response: 1.25e-05

Exam item: Item under review: A15U U54A . Reported kcat?
Marked response: 0.00741

Exam item: Item under review: U31C C71G . Reported kcat?
Marked response: 0.000382

Exam item: Item under review: U46A U54G . Reported kcat?
Marked response: 0.00254

Exam item: Item under review: G29U U54A . Reported kcat?
Marked response: 0.00792

Exam item: Item under review: U49G A53U . Reported kcat?
Marked response: 0.00103

Exam item: Item under review: A52U C71A . Reported kcat?
Marked response: 0.000156

Exam item: Item under review: A15U G41A . Reported kcat?
Marked response: 0.000124

Exam item: Item under review: A48C U69C . Reported kcat?
Marked response: 7.16e-05

Exam item: Item under review: A12C U47C . Reported kcat?
Marked response: 0.00284

Exam item: Item under review: G29A U55G . Reported kcat?
Marked response: 0.00132

Exam item: Item under review: G66C C67G . Reported kcat?
Marked response: 2.61e-05

Exam item: Item under review: G13U C68A . Reported kcat?
Marked response: 1.31e-05

Exam item: Item under review: C68U C71G . Reported kcat?
Marked response: 1.73e-05

Exam item: Item under review: G63U U69G . Reported kcat?
Marked response: 2.86e-05

Exam item: Item under review: U55A U69A . Reported kcat?
Marked response: 9.24e-05

Exam item: Item under review: U54C A64C . Reported kcat?
Marked response: 0.000257

Exam item: Item under review: C11A U30A U45G . Reported kcat?
Marked response: 2.81e-05

Exam item: Item under review: G37A C70U . Reported kcat?
Marked response: 0.00286

Exam item: Item under review: C50U C71G . Reported kcat?
Marked response: 3.46e-05

Exam item: Item under review: A39U C71G . Reported kcat?
Marked response: 0.00162

Exam item: Item under review: G41U A53G . Reported kcat?
Marked response: 0.00129

Exam item: Item under review: U49G U56C . Reported kcat?
Marked response: 0.000112

Exam item: Item under review: A14G G43U U46G . Reported kcat?
Marked response: 3.09e-05

Exam item: Item under review: C16U G66C C67U . Reported kcat?
Marked response: 3.45e-05

Exam item: Item under review: U55C U65C . Reported kcat?
Marked response: 0.000217

Exam item: Item under review: G13U A53U . Reported kcat?
Marked response: 0.00139

Exam item: Item under review: A12C A14U . Reported kcat?
Marked response: 0.000416

Exam item: Item under review: A39C . Reported kcat?
Marked response: 0.00949

Exam item: Item under review: A52U U54C . Reported kcat?
Marked response: 0.000603

Exam item: Item under review: U30G G66C . Reported kcat?
Marked response: 0.000132

Exam item: Item under review: A39G . Reported kcat?
Marked response: 0.0923

Exam item: Item under review: A15G C68A . Reported kcat?
Marked response: 6.63e-05

Exam item: Item under review: U46A U56C . Reported kcat?
Marked response: 0.0005

Exam item: Item under review: U54A U69A . Reported kcat?
Marked response: 0.00011

Exam item: Item under review: A39C U55C . Reported kcat?
Marked response: 0.00774

Exam item: Item under review: C16G U31C . Reported kcat?
Marked response: 0.000606

Exam item: Item under review: U30C C58G C68A . Reported kcat?
Marked response: 5.09e-05

Exam item: Item under review: A6U U30C C68U . Reported kcat?
Marked response: 2.13e-05

Exam item: Item under review: A14G C58U C61U . Reported kcat?
Marked response: 1.33e-05

Exam item: Item under review: G13U C68A C70G . Reported kcat?
Marked response: 2.66e-05

Exam item: Item under review: A42U A53U . Reported kcat?
Marked response: 0.000105

Exam item: Item under review: U30A U69A . Reported kcat?
Marked response: 5.09e-05

Exam item: Item under review: U30C U46G . Reported kcat?
Marked response: 3.27e-05

Exam item: Item under review: U45A U56C . Reported kcat?
Marked response: 0.00585

Exam item: Item under review: G41A U55G . Reported kcat?
Marked response: 0.000144

Exam item: Item under review: C11U U30C . Reported kcat?
Marked response: 0.000527

Exam item: Item under review: A15G C16U . Reported kcat?
Marked response: 0.00689

Exam item: Item under review: A39G C50A G51U C71G . Reported kcat?
Marked response: 1.15e-05

Exam item: Item under review: G37A G66A . Reported kcat?
Marked response: 0.00157

Exam item: Item under review: A14C U47G . Reported kcat?
Marked response: 0.00101

Exam item: Item under review: C16G U31G . Reported kcat?
Marked response: 0.000843

Exam item: Item under review: U46C U57G . Reported kcat?
Marked response: 1.4e-05

Exam item: Item under review: U30G G32A U49G . Reported kcat?
Marked response: 6.41e-05

Exam item: Item under review: U47C G66A . Reported kcat?
Marked response: 0.00207

Exam item: Item under review: C11A U30G . Reported kcat?
Marked response: 0.000664
